Experimental System: Cathepsin S (Homo sapiens, UniProt P25774)
Sequence (P25774 whole entry): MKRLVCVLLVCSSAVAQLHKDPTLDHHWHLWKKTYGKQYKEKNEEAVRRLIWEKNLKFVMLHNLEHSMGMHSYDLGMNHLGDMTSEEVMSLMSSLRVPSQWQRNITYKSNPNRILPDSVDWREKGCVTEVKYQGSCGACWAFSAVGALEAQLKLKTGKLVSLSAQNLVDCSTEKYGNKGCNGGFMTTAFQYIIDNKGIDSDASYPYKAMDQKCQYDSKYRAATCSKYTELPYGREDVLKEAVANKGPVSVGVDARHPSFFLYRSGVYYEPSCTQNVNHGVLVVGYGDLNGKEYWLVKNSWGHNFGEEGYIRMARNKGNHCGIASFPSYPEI
Protocol Details: Inhibition of cathepsin S in human Raji cells assessed as decrease in cell surface expression of MHC class 2/CLIP by flow cytometric analysis
Format: cell-based
pIC50 reference
Schema: pIC50 number; meaning minus log10 of the concentration expressed in molar units.

Observe how each entry below is paired with its result.
>  <Structure Smiles String>
C[C@@H]1CC[C@H](NC(=O)[C@H](CC2(C)CCCCC2)NC(=O)c2ccco2)C(=O)CN1C(=O)c1ccccn1

>  <pIC50>
5.41

$$$$
>  <Structure Smiles String>
CC(C)C[C@H](NC(=O)c1cc2cc(OCCN3CCOCC3)ccc2o1)C(=O)N[C@H]1CCCN(C(=O)Cc2cccc(-c3ccccn3)c2)CC1=O

>  <pIC50>
6.03

$$$$
>  <Structure Smiles String>
C[C@@H]1CC[C@H](NC(=O)[C@H](CC2CCCCC2)NC(=O)c2ccco2)C(=O)CN1S(=O)(=O)c1ccccn1

>  <pIC50>
5.75

$$$$

Lookup: Please report the recorded pIC50 for `C[C@@H]1CC[C@H](NC(=O)[C@H](CC2(C)CCCCC2)NC(=O)N2CCOCC2)C(=O)CN1S(=O)(=O)c1ccccn1` .
Found: 6.24

Lookup: Please report the recorded pIC50 for `C[C@@H]1CC[C@H](NC(=O)[C@H](CC(C)(C)C)NC(=O)c2ccco2)C(=O)CN1S(=O)(=O)c1ccccn1` .
Found: 5.32

Lookup: Please report the recorded pIC50 for `C[C@@H]1CC[C@H](NC(=O)[C@H](CC2(C)CCCCC2)NC(=O)c2ccco2)C(=O)CN1S(=O)(=O)c1ccccn1` .
Found: 5.85
